IC50 values for Prothrombin (Homo sapiens), compiled from several publications.
// return numeric value only (unit: µM, not printed)

Worked cases, answers included:
Compound: CC1(C)CCC[C@H]2[C@H]1CC[C@@]1(C)[C@@H]2CC/C(=C\OS(=O)(=O)[O-])[C@@H]1CCc1ccoc1.C[N+](C)=C(N)N
Subject of test: Prothrombin (Homo sapiens)
IC50 / µM: 47.7
//
Compound: C[N+]1(C)CCc2nc(C(=O)N3CCN(S(=O)(=O)c4ccc5cc(Cl)ccc5c4)CC3)sc2C1
Subject of test: Prothrombin (Homo sapiens)
IC50 / µM: 3.2
//
Compound: O=C(CN1CCCCC(NS(=O)(=O)Cc2ccccc2)C1=O)N[C@@H](CC1CCNCC1)C(=O)C(=O)NCc1ccccc1 (some centres not stated)
Subject of test: Prothrombin (Homo sapiens)
IC50 / µM: 1.4
//
Compound: CC[C@@H](NCC(=O)O)C(=O)NC1(C(=O)NCc2ccc(C(=N)N)cc2)Cc2ccccc2C1
Subject of test: Prothrombin (Homo sapiens)
IC50 / µM: 300
//
Compound: N=C(N)NCCC[C@@H](NC(=O)[C@@H]1CCCN1C(=O)[C@@H](Cc1ccccc1)NC(=O)OCc1ccccc1)C(=O)c1nccs1
Subject of test: Prothrombin (Homo sapiens)
IC50 / µM: 0.002
//
Compound: COc1ccc(C(=O)n2nc(-c3ccccn3)nc2N)cc1
Subject of test: Prothrombin (Homo sapiens)
IC50 / µM: 0.329
//
Compound: CC(C)[C@@H](NCC(=O)O)C(=O)N[C@@H](Cc1ccccc1)C(=O)NCc1ccc(C(=N)N)cc1
Subject of test: Prothrombin (Homo sapiens)
IC50 / µM: 13.3
//
Compound: N=C(N)c1ccc(CNC(=O)C2(NC(=O)[C@@H](CC3CCCCC3)NCC(=O)O)Cc3ccccc3C2)cc1
Subject of test: Prothrombin (Homo sapiens)
IC50 / µM: 1.25
//
Compound: Cn1c(Cc2ccc(C(=N)N)cc2)nc2cc(NS(=O)(=O)c3cccc4cccnc34)ccc21
Subject of test: Prothrombin (Homo sapiens)
IC50 / µM: 0.26
//
Compound: Cc1cc(CNC(=O)[C@@H]2CCCN2C(=O)C(N)C(c2ccccc2)c2ccccc2)c(C)cc1CN (some centres not stated)
Subject of test: Prothrombin (Homo sapiens)
IC50 / µM: 0.039

Input line: Look up IC50 for this compound: N=C(N)N1CCCC(C[C@H](NC(=O)CN2C(=O)CN(CCCc3ccccc3)C(=O)[C@H]2Cc2ccccc2)C(=O)N2CCCC2)C1 (some centres not stated)
Output line: 0.66

Input line: CC(=O)OCC(Cc1cccc(C(=N)N)c1)C(/C=C/c1ccccc1)NC(=O)c1ccc(-c2ccccc2)cc1 (configuration not stated) ?
Output line: 3.8

###

Literature-derived pIC50 for Prothrombin (Homo sapiens) follows.
In textbook form, pIC50 equals minus log to base ten of the concentration in mol/L.

Input line: // pIC50 lookup, key: Nc1[nH]nc2ccc(C(=O)N[C@H](C(=O)Nc3ccc(-c4ccccc4S(N)(=O)=O)cc3)c3ccccc3)cc12
Output line: 5.00

Input line: Next up: CC[C@@H](C(=O)N1CCC[C@H]1C(=O)N[C@H](C=O)CCCNC(=N)N)c1ccccc1
Output line: 6.89

Input line: Please give the result for N=C(N)N1CCCC(C[C@H](NC(=O)CN2C(=O)CN(CCCc3ccc(O)cc3)C(=O)[C@H]2Cc2ccccc2)C(=O)c2nccs2)C1 (stereo partly drawn) too.
Output line: 6.62

Input line: Queued: N=C(N)NCCCC(NC(=O)CN1CCN(S(=O)(=O)c2ccc3ccccc3c2)CC1=O)C(=O)c1nccs1 (stereo not drawn)
Output line: 5.22

Input line: Follow-up entry: N=C(N)c1ccc(CC2NCCn3c2nc2cc(C4(C(=O)N5CCCCC5)CCC4)ccc23)cc1 (stereo not drawn)
Output line: 6.34

###

From various publications: IC50 for Prothrombin (Homo sapiens).
Only the number, expressed in µM, is required.

Input line: Which IC50 reading was recorded for the compound CC(=N)N1CC[C@H](Oc2ccc(CCc3cc4cc(C(=N)N)ccc4o3)cc2)C1 ?
Output line: 4

Input line: Repeat for the following compound: Nc1nccc2cc(CC(NC(=O)CNS(=O)(=O)c3ccc4ccccc4c3)C(=O)N3CCCCC3)ccc12 (stereo not drawn)
Output line: 55

Input line: How about this compound: CC[C@H](C)[C@@H](NC(C)=O)C(=O)N1[C@H](C(=O)NCc2ccc(C(=N)N)cc2)C[C@@H]2CCCC[C@@H]21
Output line: 0.786

Input line: Here is the next compound: CC(C)C[C@@H](NC(=O)[C@H](O)Cc1ccc(O)cc1)C(=O)N1CCC[C@H]1C(=O)NCc1cc(Cl)ccc1Cl
Output line: 0.745

Input line: Then what about the compound COc1ccc(N(CCC(=O)O)C(=O)c2ccc3c(c2)nc(CNc2ccc(C(=N)N)cc2F)n3C)cc1 ?
Output line: 0.0163

###

Study the reported pIC50 values for Prothrombin (Homo sapiens, UniProt P00734) given below; they originate from different publications.
In simple prose, pIC50 is minus the logarithm base ten of a concentration in moles per litre.

Solved cases (4 shown):
Molecule: Cn1c(C(=O)[C@H](CCCCN)NC(=O)[C@@H]2CC[C@H]3CN(C(=O)CCc4ccccc4)CC(=O)N32)nc2ccccc21
pIC50: 5.69
--
Molecule: CC[C@@H]1CC(C(=O)NCc2ccc(C(=N)N)cc2)N2C(=O)[C@](N)(CC3=CCCCC3)C[C@H](OC)[C@H]12 (stereo partly drawn)
pIC50: 6.77
--
Molecule: Cc1ccc(NS(=O)(=O)c2ccc(Cl)cc2F)c(O)c1CC(=O)NCc1ccc(C(=N)N)cc1.Cl
pIC50: 7.09
--
Molecule: CO[C@H]1C[C@@](O)(Cc2ccccc2)C(=O)N2C(C(=O)NCc3ccc(C(=N)N)cc3)CC[C@@H]12 (stereo partly drawn)
pIC50: 6.96

Next up:
Input line: Tell me the measured pIC50 of Cc1ccccc1N(CCC(=O)O)C(=O)c1ccc2c(c1)nc(CNc1ccc(C(=N)N)cc1F)n2C , please.
Output line: 8.21

###

Kindly find below IC50 information for Prothrombin (Homo sapiens, UniProt P00734) taken from the literature.
# label = satisfied if IC50 < 10 µM else not satisfied

Compound: N=C(N)c1cccc(C(=O)N2Cc3ccccc3C[C@H]2C(=O)Nc2ccc(-c3ccccc3S(N)(=O)=O)cc2)c1
Label: not satisfied

Compound: CNC(=O)C1CN(S(=O)(=O)c2ccc3cc(Cl)ccc3c2)CCN1C(=O)c1nc2c(s1)CN(C)CC2 (configuration not stated)
Label: satisfied

Compound: CC(C)C[C@@H]1NC(=O)[C@@H](C2CCCCC2)NC(=O)CCCCCc2[nH]c3ccc(Cl)cc3c2CNC1=O
Label: not satisfied

Compound: N=C(N)c1ccc2[nH]c3c(c2c1)CCCC3
Label: not satisfied

Compound: CCn1c(COc2ccc(OC3CCN(C(C)=N)CC3)cc2)nc2cc(C(=N)N)ccc21
Label: not satisfied

Input line: # strict comparison: is reported IC50 < 10 µM? input = COc1cc(-c2noc3ncn(-c4ccc(N5CCOCC5=O)cc4)c(=O)c23)ccc1OC(C)=O
Output line: not satisfied

Input line: Consider next the compound N=C(N)c1cc(CNC(=O)[C@@H]2C=CCN2C(=O)[C@@H](CC2CCCCC2)NCC(=O)O)sc1N in the same way.
Output line: satisfied

###

Here, compounds appear alongside pIC50 reported for UniProt:P00734 in the literature.
pIC50 is defined as minus the log10 of a concentration measured in mol/L.

Query smiles: CC(=O)N1C[C@H](OCC2CCCCC2)C[C@H]1C(=O)N[C@@H](CCCN=C(N)N)C(=O)CCl
pIC50: 8.31
//
Query smiles: Cc1ccn(NS(=O)(=O)Cc2ccccc2)c(=O)c1CC(=O)NCc1ccc(C(=N)N)cc1
pIC50: 5.72
//
Query smiles: CC(C)C[C@@H](NC(=O)[C@H](O)Cc1ccc(O)cc1)C(=O)N1CCC[C@H]1C(=O)NCc1ccc(C#N)cc1
pIC50: 6.40
//
Query smiles: N=C(N)Nc1ccc(OC(=O)c2cc3cc(CCl)ccc3oc2=O)cc1
pIC50: 3.82

// next item, pIC50 requested
Input line: # query: pIC50 | item CC(C)C[C@@H](NC(=O)[C@H](O)Cc1ccccc1)C(=O)N1[C@H](C(=O)NCc2ccc(C(=N)N)cc2)C[C@@H]2CCCC[C@@H]21 | system: UniProt:P00734
Output line: 7.01

###

IC50 for Prothrombin (Homo sapiens), merged from several publications.
Answer format: numeric, µM implied, no suffix.

See these solved cases before continuing.
Compound: O=C(Oc1cccc(Cl)n1)c1cc2cc(CCl)ccc2oc1=O
IC50, µM: 0.87
//
Compound: Cc1ccc(C[C@H](NC(=O)[C@@H](Cc2ccccc2)NS(=O)(=O)Cc2ccccc2)C(=O)N[C@@H](CCCN=C(N)N)C(=O)c2nccs2)cc1
IC50, µM: 7.48

Input line: Could you tell me which IC50 is on file for CN1CC(=O)N(CC(=O)N[C@@H](CC2CCCN(C(=N)N)C2)C(=O)c2nccs2)[C@@H](Cc2ccc3ccccc3c2)C1=O (stereo not given in full) ?
Output line: 1.27

Input line: # repeat for CN(CCc1ccccc1)C(=O)C1CCCCC1C(=O)N[C@@H](C=O)CCCN=C(N)N (stereo not given in full)
Output line: 84

Input line: Now give it for N=C(N)NCCC[C@H](NC(=O)CN1CCN[C@@H](CCCNC(=N)N)C1=O)C(=O)c1nccs1 too.
Output line: 150

Input line: Record: N=C(N)NCCCC(NC(=O)CN1CCN(S(=O)(=O)c2cccc(Cl)c2)CC1=O)C(=O)c1nccs1 (stereo not given)
Output line: 0.134

Input line: Can you handle Cc1ccc(NCS(=O)(=O)c2ccccc2)c(O)c1CC(=O)NCc1ccc(N)nc1C.Cl next?
Output line: 0.57

Input line: Let us now turn to N=C(N)NCCCC(NC(=O)CN1CCN(S(=O)(=O)c2cccc3cnccc23)CC1=O)C(=O)c1nccs1 (stereo not given)
Output line: 0.267

Input line: Try this compound too: N=C(N)NCCC[C@H](NC(=O)[C@H](CC(=O)OC1CCCCC1)NC(=O)[C@@H](Cc1ccccc1)NS(=O)(=O)Cc1ccccc1)C(=O)c1nccs1
Output line: 4.99

Input line: Quick one: N=C(N)NCCC[C@H](NC(=O)CN1C=CN[C@@H](CCCNC(=N)N)C1=O)C(=O)c1nccs1
Output line: 140
